# Test system: Staphylococcus aureus
# protocol.text: Antibacterial activity against methicillin-resistant Staphylococcus aureus 004 after 18 hrs
# Type: functional
metric: MIC (µg/mL)

cpd.smiles	relation.sign	reported.value
O=C(NCCSSSCCNC(=O)/C(Cc1ccc(O)c(Br)c1)=N/O)/C(Cc1ccc(O)c(Br)c1)=N/O	=	3.1
COC(=O)NCCSSCCNC(=O)/C(Cc1ccc(O)c(Br)c1)=N/O	>	25
O=C(NCCSSCCNC(=O)/C(Cc1cc(Br)c(O)c(Br)c1)=N/O)/C(Cc1ccc(O)c(Br)c1)=N/O	=	12.5
O=C(NCCSSCCNC(=O)/C(Cc1ccc(Oc2cc(C/C(=N\O)C(=O)NCCSSCCNC(=O)/C(Cc3ccc(O)c(Br)c3)=N/O)cc(Br)c2O)c(Br)c1)=N/O)/C(Cc1ccc(O)c(Br)c1)=N/O	>	50
O=C(NCCSSCCNC(=O)/C(Cc1cc(Br)c(O)c(-c2cc(C/C(=N\O)C(=O)NCCSSCCNC(=O)/C(Cc3ccc(O)c(Br)c3)=N/O)cc(Br)c2O)c1)=N/O)/C(Cc1ccc(O)c(Br)c1)=N/O	=	6.3
C[C@@H](O)[C@H]1C(=O)N2C(C(=O)O)=C(S[C@@H]3CN[C@H](C(=O)N(C)C)C3)[C@H](C)[C@H]12	=	3.1

* * *

# Test system: SK-OV-3
# protocol.text: Cytotoxicity against human SKOV3 cells
# Assay type: functional
# condition.description: read-out: ED50 (the source's name)
# log10 of EC50 annotations
metric: log10 of EC50 (log10 of the value in µg/mL)

cpd.smiles	log10 of EC50
O=C(NCCSSCCNC(=O)/C(Cc1ccc(Oc2cc(C/C(=N\O)C(=O)NCCSSCCNC(=O)/C(Cc3ccc(O)c(Br)c3)=N/O)cc(Br)c2O)c(Br)c1)=N/O)/C(Cc1ccc(O)c(Br)c1)=N/O	0.18
COc1cccc2c1C(=O)c1c(O)c3c(c(O)c1C2=O)C[C@@](O)(C(=O)CO)C[C@@H]3O[C@H]1C[C@H](N)[C@H](O)[C@H](C)O1	-0.82
COC(=O)NCCSSCCNC(=O)/C(Cc1ccc(O)c(Br)c1)=N/O	-0.77
O=C(NCCSSCCNC(=O)/C(Cc1cc(Br)c(O)c(-c2cc(C/C(=N\O)C(=O)NCCSSCCNC(=O)/C(Cc3ccc(O)c(Br)c3)=N/O)cc(Br)c2O)c1)=N/O)/C(Cc1ccc(O)c(Br)c1)=N/O	0.44
O=C(NCCSSCCNC(=O)/C(Cc1cc(Br)c(O)c(Br)c1)=N/O)/C(Cc1ccc(O)c(Br)c1)=N/O	0.14
O=C(NCCSSCCNC(=O)/C(Cc1ccc(O)c(Br)c1)=N/O)/C(Cc1ccc(O)c(Br)c1)=N/O	-0.85

* * *

# Tested on: Staphylococcus aureus
# protocol.text: Antibacterial activity against methicillin-resistant Staphylococcus aureus KIST3 after 18 hrs
# Type: functional
# MIC annotations

molecule	measurement.units	relation.sign	MIC
COC(=O)NCCSSCCNC(=O)/C(Cc1ccc(O)c(Br)c1)=N/O [PSAMMAPLIN D]	µg/mL	>	25
O=C(NCCSSCCNC(=O)/C(Cc1cc(Br)c(O)c(-c2cc(C/C(=N\O)C(=O)NCCSSCCNC(=O)/C(Cc3ccc(O)c(Br)c3)=N/O)cc(Br)c2O)c1)=N/O)/C(Cc1ccc(O)c(Br)c1)=N/O [BISAPRASIN]	µg/mL	=	6.3
O=C(NCCSSSCCNC(=O)/C(Cc1ccc(O)c(Br)c1)=N/O)/C(Cc1ccc(O)c(Br)c1)=N/O	µg/mL	=	6.3
O=C(NCCSSCCNC(=O)/C(Cc1cc(Br)c(O)c(Br)c1)=N/O)/C(Cc1ccc(O)c(Br)c1)=N/O	µg/mL	=	12.5
O=C(NCCSSCCNC(=O)/C(Cc1ccc(Oc2cc(C/C(=N\O)C(=O)NCCSSCCNC(=O)/C(Cc3ccc(O)c(Br)c3)=N/O)cc(Br)c2O)c(Br)c1)=N/O)/C(Cc1ccc(O)c(Br)c1)=N/O [BISPSAMMAPLIN A]	µg/mL	>	50
C[C@@H](O)[C@H]1C(=O)N2C(C(=O)O)=C(S[C@@H]3CN[C@H](C(=O)N(C)C)C3)[C@H](C)[C@H]12 [MEROPENEM]	µg/mL	=	50
